# system-name: Lysosomal alpha-glucosidase (Homo sapiens)
# assay-remarks: Confirmation of Inhibitors and Activators of Purified Human alpha-Glucosidase Using an Alternate Red Fluorescent Susbtrate
# stated-conditions: purified enzyme, red fluorogenic substrate; series mostly up to 63.4 µM
Records with an inconclusive call do not appear. The source made the active and inactive calls. Calls follow the shape of the dose curve; as a rule, active = well fitted curve in either direction with a large enough effect; inconclusive = small, poorly fitted or top-dose-only effect; inactive = no such curve, though single readings can be large or run the other way.
Entry note: the call must match one of 1 (yes) for active, 0 (no) for inactive

Answer briefly: the call reported for COc1ccc(CCn2c3c(c(=O)[nH]c2=S)CN(C)CN3)cc1OC in this assay.
1 (yes)

Would you kindly repeat that for CCCN1CNc2c(c(=O)[nH]c(=S)n2CCc2cccc(C)c2)C1 ?
1 (yes)

Also, CCCN1CNc2c(c(=O)[nH]c(=S)n2CCc2ccc(Cl)cc2Cl)C1 please.
1 (yes)

Now consider COc1ccc(CCn2c(=S)[nH]c(=O)c3c(C)cc(C)nc32)cc1OC and answer again.
0 (no)

Now the compound O=C1Cc2cc(S(=O)(=O)N3CCNCC3)ccc2N1
0 (no)

Same lookup for CCCCN1C[C@H](O)[C@@H](O)[C@H](O)[C@H]1CO , please.
0 (no)

How about CCCN1CNc2c(c(=O)[nH]c(=S)n2CCc2ccccc2OC)C1 ?
1 (yes)

Same lookup for CC(=O)c1ccc(N2CCN(S(=O)(=O)c3ccc4c(c3)CCC(=O)N4)CC2)cc1 , please.
0 (no)

CC(=O)N1CCN(S(=O)(=O)c2ccc3c(c2)CC(=O)N3)CC1 , same question.
1 (yes)

Also CC(=O)Nc1ccc(S(=O)(=O)N2CCN(c3ccc(C(C)=O)cc3)CC2)cc1 , if possible.
0 (no)

Same lookup for CC(O)[C@@H](O)[C@H]1CNc2nc(N)[nH]c(=O)c2N1 (stereo partly specified) , please.
0 (no)

Same thing, different compound: O=S(=O)(c1ccc(Cl)cc1)N1CCN(c2nc(-c3cccs3)nc3ccccc23)CC1
0 (no)

Item: CC(=O)c1ccc(N2CCN(S(=O)(=O)c3ccc4c(c3)CCCC(=O)N4)CC2)cc1
0 (no)

Further, for CCCN1CNc2c(c(=O)[nH]c(=S)n2Cc2ccc(OC)c(OC)c2)C1 ?
1 (yes)

Lookup CC(=O)c1ccc(N2CCN(S(=O)(=O)c3ccc4[nH]c(=O)oc4c3)CC2)cc1
0 (no)

Now this one: O=C1Cc2cc(S(=O)(=O)N3CCN(c4ccc(CO)cc4)CC3)ccc2N1
1 (yes)

What do you get for CCCN1CNc2c(c(=O)[nH]c(=S)n2CCc2ccc(OC)cc2OC)C1 ?
1 (yes)

# repeat for COc1ccc(CCn2c3c(c(=O)[nH]c2=S)CN(CC(C)C)CN3)cc1OC
1 (yes)

Note, next up: CCCN1CNc2c(c(=O)[nH]c(=S)n2CCc2cccs2)C1
1 (yes)

Try this compound next: N#Cc1ccc(N2CCN(S(=O)(=O)c3ccc4c(c3)CC(=O)N4)CC2)cc1
1 (yes)

Subsequent entry: CCCN1CNc2c(c(=O)[nH]c(=S)n2CCc2ccc3c(c2)OCCO3)C1
1 (yes)

###

# system-name: Lysosomal alpha-glucosidase (Homo sapiens)
# assay-remarks: Confirmation of Inhibitors and Activators of Purified Human alpha-Glucosidase Using an Alternate Red Fluorescent Susbtrate
# stated-conditions: purified enzyme, red fluorogenic substrate; series mostly up to 63.4 µM
Records with an inconclusive call do not appear. Active and inactive are the calls of the source. Calls follow the shape of the dose curve; as a rule, active = well fitted curve in either direction with a large enough effect; inconclusive = small, poorly fitted or top-dose-only effect; inactive = no such curve, though single readings can be large or run the other way.
Choose one outcome from this list and give only that: Y (active), N (inactive)

Hello, I am checking results. What call was entered for CC(=O)c1ccc(N2CCN(S(=O)(=O)c3ccc4c(c3)oc(=O)n4C)CC2)cc1 ?
N

Another compound to check: Nc1nc(N)c2nc(-c3ccccc3)c(N)nc2n1
N

CCCN1CNc2c(c(=O)[nH]c(=S)n2CCc2c(C)cccc2C)C1 , same question.
Y

Now this one: CCCN1CNc2c(c(=O)[nH]c(=S)n2CCc2ccc(C)c(C)c2)C1
Y

Proceed to COc1ccc(CCn2c3c(c(=O)[nH]c2=S)CN(c2ccccc2)CN3)cc1OC
Y

Numbers sourced from PubChem BioAssay AID2110.
